Test system: PPARg:RXRa 270nM:90nM, anti-RXR (NR concentration 270 nM, RXRa partner concentration 90 nM)
Experiment: PBM binding z-score (relative to random genomic background probes); higher = stronger binding; sequences stand for … in GC…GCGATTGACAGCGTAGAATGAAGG
ASSAY ENDPOINT: PBM binding z-score

>>> reported_result("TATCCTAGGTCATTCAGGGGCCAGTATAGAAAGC")
3.8
>>> reported_result("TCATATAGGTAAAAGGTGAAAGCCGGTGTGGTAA")
8.59
>>> reported_result("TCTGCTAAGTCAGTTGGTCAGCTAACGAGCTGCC")
0.263
>>> reported_result("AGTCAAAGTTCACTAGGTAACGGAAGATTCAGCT")
6.56
>>> reported_result("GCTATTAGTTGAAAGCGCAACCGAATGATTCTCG")
-0.0229
>>> reported_result("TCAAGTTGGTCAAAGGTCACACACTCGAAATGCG")
9.6
>>> reported_result("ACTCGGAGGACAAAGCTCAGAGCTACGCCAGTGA")
-0.00696
>>> reported_result("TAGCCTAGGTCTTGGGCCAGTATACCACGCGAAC")
-0.286
>>> reported_result("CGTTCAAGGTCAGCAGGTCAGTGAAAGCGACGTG")
5.47
>>> reported_result("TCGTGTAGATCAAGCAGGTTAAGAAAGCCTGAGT")
0.747
>>> reported_result("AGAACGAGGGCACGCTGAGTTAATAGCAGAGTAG")
1.65
>>> reported_result("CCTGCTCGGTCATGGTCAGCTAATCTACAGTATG")
-0.261
>>> reported_result("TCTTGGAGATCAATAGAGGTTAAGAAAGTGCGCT")
1.27
>>> reported_result("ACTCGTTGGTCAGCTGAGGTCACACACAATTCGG")
1.84
>>> reported_result("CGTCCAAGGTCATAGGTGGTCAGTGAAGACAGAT")
5.25
>>> reported_result("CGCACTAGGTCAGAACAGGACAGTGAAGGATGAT")
4.2
>>> reported_result("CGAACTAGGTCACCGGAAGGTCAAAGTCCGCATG")
7.7
>>> reported_result("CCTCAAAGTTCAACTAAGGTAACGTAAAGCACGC")
4.09
>>> reported_result("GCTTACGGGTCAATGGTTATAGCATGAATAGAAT")
4.54
>>> reported_result("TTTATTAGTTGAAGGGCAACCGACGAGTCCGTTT")
1.71
>>> reported_result("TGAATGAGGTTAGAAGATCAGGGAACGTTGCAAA")
1.29
>>> reported_result("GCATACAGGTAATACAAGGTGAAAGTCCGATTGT")
0.843
>>> reported_result("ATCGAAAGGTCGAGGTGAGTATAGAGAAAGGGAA")
3.66
>>> reported_result("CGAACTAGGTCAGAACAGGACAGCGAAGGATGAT")
4.4
>>> reported_result("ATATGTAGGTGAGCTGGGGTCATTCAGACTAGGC")
5.75
>>> reported_result("CCTCGCAGGCCAGGGTCACTCAAGCATTTCGCTT")
1.04

###

Tested on: LXRa:RXRa (NR concentration 270 nM, RXRa partner concentration 90 nM)
Test: PBM binding z-score (relative to random genomic background probes); higher = stronger binding; sequences stand for … in GC…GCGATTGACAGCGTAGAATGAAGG
ASSAY ENDPOINT: PBM binding z-score

>>> reported_result("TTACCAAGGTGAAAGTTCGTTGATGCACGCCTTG")
1.83
>>> reported_result("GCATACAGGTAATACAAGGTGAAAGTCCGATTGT")
2.17
>>> reported_result("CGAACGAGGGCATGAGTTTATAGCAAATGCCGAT")
0.306
>>> reported_result("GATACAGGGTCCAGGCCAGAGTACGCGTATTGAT")
-0.534
>>> reported_result("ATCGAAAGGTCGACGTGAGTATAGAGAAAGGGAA")
3.07
>>> reported_result("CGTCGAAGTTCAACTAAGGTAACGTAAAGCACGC")
3.83
>>> reported_result("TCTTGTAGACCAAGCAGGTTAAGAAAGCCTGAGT")
0.184
>>> reported_result("GATAGAGGGTCAAGGCCAGAGTACGCGTATTGAT")
3.11
>>> reported_result("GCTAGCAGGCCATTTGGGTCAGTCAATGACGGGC")
-0.302
>>> reported_result("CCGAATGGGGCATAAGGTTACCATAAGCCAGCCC")
2.03
>>> reported_result("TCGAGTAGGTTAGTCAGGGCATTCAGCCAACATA")
0.175
>>> reported_result("ACTTACCGGTCAACGAGGTTATAGCACGCGTATA")
3.17
>>> reported_result("CGAACTAGGTCATTGACAGGACAGTGATTAGTAA")
3.04
>>> reported_result("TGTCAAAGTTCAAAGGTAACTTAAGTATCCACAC")
6.57
>>> reported_result("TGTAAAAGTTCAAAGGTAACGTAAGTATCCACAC")
6.21
>>> reported_result("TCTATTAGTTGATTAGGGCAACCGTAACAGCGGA")
0.299
>>> reported_result("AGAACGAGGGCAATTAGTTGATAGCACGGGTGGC")
0.389
>>> reported_result("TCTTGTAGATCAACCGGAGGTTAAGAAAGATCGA")
1.58
>>> reported_result("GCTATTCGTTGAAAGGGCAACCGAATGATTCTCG")
0.488
>>> reported_result("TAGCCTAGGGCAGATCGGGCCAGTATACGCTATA")
-0.549
>>> reported_result("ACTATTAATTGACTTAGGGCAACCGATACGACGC")
0.356
>>> reported_result("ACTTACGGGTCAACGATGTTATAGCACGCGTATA")
4.04
>>> reported_result("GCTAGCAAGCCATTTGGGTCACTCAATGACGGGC")
-0.493
>>> reported_result("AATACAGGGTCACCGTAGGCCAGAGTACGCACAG")
6.43
>>> reported_result("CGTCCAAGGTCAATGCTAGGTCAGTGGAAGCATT")
5.73
>>> reported_result("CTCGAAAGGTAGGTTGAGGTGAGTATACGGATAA")
-0.128

###

Test system: VDR homodimer (NR concentration 270 nM)
Experiment: PBM binding z-score (relative to random genomic background probes); higher = stronger binding; sequences stand for … in GC…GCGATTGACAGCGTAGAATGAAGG
Values of PBM binding z-score greater than or equal to 0.2 map to true; values below map to false.

>>> group_label("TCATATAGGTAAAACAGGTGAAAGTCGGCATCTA")
"false"
>>> group_label("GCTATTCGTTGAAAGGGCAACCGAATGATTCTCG")
"false"
>>> group_label("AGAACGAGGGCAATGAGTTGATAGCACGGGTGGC")
"true"
>>> group_label("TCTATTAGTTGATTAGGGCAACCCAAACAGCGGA")
"true"
>>> group_label("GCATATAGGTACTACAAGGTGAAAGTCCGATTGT")
"false"
>>> group_label("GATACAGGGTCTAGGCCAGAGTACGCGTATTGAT")
"false"
>>> group_label("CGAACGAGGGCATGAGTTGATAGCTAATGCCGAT")
"true"
>>> group_label("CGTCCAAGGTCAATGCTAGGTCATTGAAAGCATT")
"true"
>>> group_label("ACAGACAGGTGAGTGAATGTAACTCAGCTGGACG")
"false"
>>> group_label("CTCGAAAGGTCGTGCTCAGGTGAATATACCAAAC")
"true"
>>> group_label("TCATGTAGATCAATAGAGGTTAAGAAAGTGCGCT")
"true"
>>> group_label("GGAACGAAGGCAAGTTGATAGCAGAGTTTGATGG")
"false"
>>> group_label("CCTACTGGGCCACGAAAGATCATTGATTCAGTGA")
"false"
>>> group_label("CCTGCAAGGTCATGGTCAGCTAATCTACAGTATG")
"true"
>>> group_label("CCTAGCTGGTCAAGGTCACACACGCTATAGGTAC")
"true"
>>> group_label("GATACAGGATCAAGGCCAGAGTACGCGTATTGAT")
"false"
>>> group_label("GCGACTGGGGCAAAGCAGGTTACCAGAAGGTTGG")
"false"
>>> group_label("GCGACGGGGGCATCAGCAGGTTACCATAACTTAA")
"true"
>>> group_label("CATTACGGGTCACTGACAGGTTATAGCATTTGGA")
"true"
>>> group_label("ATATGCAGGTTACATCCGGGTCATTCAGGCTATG")
"true"
>>> group_label("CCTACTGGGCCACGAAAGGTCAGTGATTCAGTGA")
"false"
>>> group_label("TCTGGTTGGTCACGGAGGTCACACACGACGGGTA")
"true"
>>> group_label("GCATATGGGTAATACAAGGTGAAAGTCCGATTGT")
"false"
>>> group_label("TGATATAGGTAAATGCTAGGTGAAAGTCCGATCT")
"false"
>>> group_label("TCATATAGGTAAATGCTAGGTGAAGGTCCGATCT")
"true"
>>> group_label("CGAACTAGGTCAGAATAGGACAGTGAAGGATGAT")
"false"
>>> group_label("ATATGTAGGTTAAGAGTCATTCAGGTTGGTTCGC")
"true"
>>> group_label("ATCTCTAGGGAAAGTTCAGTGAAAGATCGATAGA")
"true"
>>> group_label("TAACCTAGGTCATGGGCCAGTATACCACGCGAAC")
"true"
>>> group_label("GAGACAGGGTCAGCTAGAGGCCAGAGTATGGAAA")
"true"
>>> group_label("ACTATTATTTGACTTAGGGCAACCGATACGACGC")
"true"
>>> group_label("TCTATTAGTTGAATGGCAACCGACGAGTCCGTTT")
"true"
>>> group_label("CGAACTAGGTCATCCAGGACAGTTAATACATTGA")
"true"
>>> group_label("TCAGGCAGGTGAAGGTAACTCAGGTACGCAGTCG")
"false"
>>> group_label("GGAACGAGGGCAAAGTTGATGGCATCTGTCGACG")
"true"
>>> group_label("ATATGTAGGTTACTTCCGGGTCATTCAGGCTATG")
"true"
>>> group_label("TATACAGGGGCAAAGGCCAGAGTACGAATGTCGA")
"true"
>>> group_label("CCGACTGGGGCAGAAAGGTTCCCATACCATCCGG")
"false"
>>> group_label("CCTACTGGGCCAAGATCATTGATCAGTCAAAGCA")
"false"
>>> group_label("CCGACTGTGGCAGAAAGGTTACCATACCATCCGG")
"false"
>>> group_label("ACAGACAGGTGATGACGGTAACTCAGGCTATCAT")
"false"
>>> group_label("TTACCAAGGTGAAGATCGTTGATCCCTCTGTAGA")
"false"
>>> group_label("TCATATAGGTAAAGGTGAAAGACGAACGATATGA")
"false"
>>> group_label("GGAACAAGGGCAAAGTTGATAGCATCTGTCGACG")
"true"
>>> group_label("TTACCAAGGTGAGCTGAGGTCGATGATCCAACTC")
"true"
>>> group_label("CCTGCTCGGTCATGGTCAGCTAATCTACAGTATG")
"false"
>>> group_label("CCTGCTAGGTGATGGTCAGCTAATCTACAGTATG")
"false"
>>> group_label("CGAACGAGGGCTTGAGTTGATAGCAAATGCCGAT")
"false"
>>> group_label("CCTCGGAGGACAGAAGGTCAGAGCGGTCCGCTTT")
"false"
>>> group_label("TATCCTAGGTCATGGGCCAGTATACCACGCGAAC")
"true"
